Each recorded value in this set is attributed to patent US20230116602A1.

System: drug-resistant cell lines of Table 3
protocolDetails: Cell line growth retardation assay, resistant cohort
Assay type: cell-based, Human
studyConditions: Homo sapiens, 144 h; arithmetic mean of IC50s over the resistant cohort of Table 3, 6 days growth; read-out: AvgRes IC50
pIC50: −log10 of the molar value.
reportedMetric: pIC50

molecule="Cc1c(-c2c(C3CCC3)ncc3snc(O[C@H](Cc4ccccc4OCc4ccnc(C5CCOCC5)n4)C(=O)O)c23)ccc(OCCN2CCN(C)CC2)c1Cl (atropisomer, axis not shown)" reportedmetric=pIC50 observedvalue="< 5.30"
molecule="COc1cc(-c2ncc3snc(O[C@H](Cc4ccccc4OCc4ccnc(-c5ccccc5OC)n4)C(=O)O)c3c2-c2ccc(OCCN3CCN(C)CC3)c(Cl)c2C)ccc1F (atropisomer, axis not shown)" reportedmetric=pIC50 observedvalue="< 5.30"
molecule="Cc1c(-c2c(-c3ccc(F)c4ccoc34)ncc3snc(O[C@H](Cc4ccccc4OCc4ccnn4CC(F)(F)F)C(=O)O)c23)ccc(OCCN2CCN(C)CC2)c1Cl (atropisomer, axis not shown)" reportedmetric=pIC50 observedvalue="< 5.30"
molecule="CCn1ccc(-c2ncc3snc(O[C@H](Cc4ccccc4OCc4ccnc(-c5ccccc5OC)n4)C(=O)O)c3c2-c2ccc(OCCN3CCN(C)CC3)c(Cl)c2C)n1 (atropisomer, axis not shown)" reportedmetric=pIC50 observedvalue="< 5.30"
molecule="COc1ccccc1-c1nccc(COc2ccccc2C[C@@H](Oc2nsc3cnc(-c4cccc(F)c4)c(-c4ccc(OCCN5CCN(C)CC5)c(Cl)c4C)c23)C(=O)O)n1 (atropisomer, axis not shown)" reportedmetric=pIC50 observedvalue="< 5.30"
molecule="COc1cccc(-c2ncc3snc(O[C@H](Cc4ccccc4OCc4ccnc(-c5ccccc5OC)n4)C(=O)O)c3c2-c2ccc(OCCC3CCN(C)CC3)c(Cl)c2C)c1 (atropisomer, axis not shown)" reportedmetric=pIC50 observedvalue="< 5.30"
molecule="COc1ccccc1-c1nccc(COc2ccccc2C[C@@H](Oc2nsc3cnc(-c4cccc(F)c4)c(-c4ccc(OCCC5CCN(C)CC5)c(Cl)c4C)c23)C(=O)O)n1 (atropisomer, axis not shown)" reportedmetric=pIC50 observedvalue="< 5.30"
molecule="Cc1c(-c2c(-c3ccc4c(ccn4C)c3)ncc3snc(O[C@H](Cc4ccccc4OCc4ccnn4CC(F)(F)F)C(=O)O)c23)ccc(OCCN2CCN(C)CC2)c1Cl (atropisomer, axis not shown)" reportedmetric=pIC50 observedvalue="< 5.30"
molecule="COc1ccccc1C[C@@H](Oc1nsc2cnc(-c3cccc(F)c3)c(-c3ccc(OCCN4CCN(C)CC4)c(Cl)c3C)c12)C(=O)O (atropisomer, axis not shown)" reportedmetric=pIC50 observedvalue="< 5.30"
molecule="COc1cccc(-c2ncc3snc(O[C@H](Cc4ccccc4OCc4ccnc(N5CCCC(C)(C)C5)n4)C(=O)O)c3c2-c2ccc(OCCN3CCN(C)CC3)c(Cl)c2C)c1 (atropisomer, axis not shown)" reportedmetric=pIC50 observedvalue="< 5.30"
molecule=Cc1c(-c2cc(-c3nn(C)c4cc(Cl)ccc34)cc3snc(O[C@H](Cc4ccccc4OCc4ccnn4CC(F)(F)F)C(=O)O)c23)ccc(OCCN2CCN(C)CC2)c1Cl reportedmetric=pIC50 observedvalue="< 5.30"
molecule="Cc1c(-c2c(-c3csc4ccccc34)ncc3snc(O[C@H](Cc4ccccc4OCc4ccnn4CC(F)(F)F)C(=O)O)c23)ccc(OCCN2CCN(C)CC2)c1Cl (atropisomer, axis not shown)" reportedmetric=pIC50 observedvalue="< 5.30"
molecule=COc1ccccc1-c1nccc(COc2ccccc2C[C@@H](Oc2nsc3cc(-c4nn(C)c5cc(Cl)ccc45)cc(-c4ccc(OCCN5CCN(C)CC5)c(Cl)c4C)c23)C(=O)O)n1 reportedmetric=pIC50 observedvalue="< 5.30"
molecule="Cc1c(-c2c(C3CCC3)ncc3snc(O[C@H](Cc4ccccc4OCc4ccnc(-c5cccc(-c6ccn(C)n6)c5)n4)C(=O)O)c23)ccc(OCCN2CCN(C)CC2)c1Cl (atropisomer, axis not shown)" reportedmetric=pIC50 observedvalue="< 5.30"
molecule="Cc1c(-c2c(C3CCC3)ncc3snc(O[C@H](Cc4ccccc4OCc4ccnc(-c5ccncc5)n4)C(=O)O)c23)ccc(OCCN2CCN(C)CC2)c1Cl (atropisomer, axis not shown)" reportedmetric=pIC50 observedvalue="< 5.30"
molecule="Cc1c(-c2c(C3CCC3)ncc3snc(O[C@H](Cc4ccccc4OCc4ccnn4CC(F)(F)F)C(=O)O)c23)ccc(OCCN2CCN(C)CC2)c1Cl (atropisomer, axis not shown)" reportedmetric=pIC50 observedvalue="< 5.30"
molecule="Cc1c(-c2c(-c3ccccn3)ncc3snc(O[C@H](Cc4ccccc4OCc4ccnn4CC(F)(F)F)C(=O)O)c23)ccc(OCCN2CCN(C)CC2)c1Cl (atropisomer, axis not shown)" reportedmetric=pIC50 observedvalue="< 5.30"
molecule="Cc1c(-c2c(C3CCC3)ncc3snc(O[C@H](Cc4ccccc4OCc4ccnc(-c5ccc(C(=O)N6CCC6)cc5)n4)C(=O)O)c23)ccc(OCCN2CCN(C)CC2)c1Cl (atropisomer, axis not shown)" reportedmetric=pIC50 observedvalue="< 5.30"
